studyTarget: KAT-6A (Homo sapiens (Human), UniProt Q92794)
Sequence (Q92794 other isoform, or with tags, fused parts or gaps): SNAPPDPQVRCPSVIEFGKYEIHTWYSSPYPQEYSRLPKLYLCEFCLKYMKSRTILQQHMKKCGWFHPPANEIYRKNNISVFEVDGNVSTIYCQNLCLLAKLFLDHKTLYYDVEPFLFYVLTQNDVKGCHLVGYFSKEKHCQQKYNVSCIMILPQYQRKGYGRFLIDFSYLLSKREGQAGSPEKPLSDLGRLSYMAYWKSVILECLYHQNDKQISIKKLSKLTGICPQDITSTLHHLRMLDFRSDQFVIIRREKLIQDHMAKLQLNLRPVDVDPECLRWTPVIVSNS
experimentDescription: KAT-6A biochemical inhibition assay (SAMDI mass spectrometry)
Description: KAT-6A. Enzyme assay buffer was 50 mM Tris pH 8.0, 0.002% Tween20, 0.005% bovine skin gelatin, and 1 mM dithiothreitol (DTT). For determination of IC50 values, compounds were serially diluted with 2% (v/v) DMSO in the final reaction, pre-incubating each dilution of each compound with 40 μL of assay buffer containing KAT-6A enzyme (12.5 nM final concentration). 10 μL of assay buffer containing 1 μM peptide substrate and 1 μM acetyl coenzyme A (final concentrations) was added. […]
pIC50: −log10 of the molar value.
readoutName: pIC50

Illustrative cases are given below, each with its answer.
Ask: State its pIC50 for this molecule: Cn1cnc(-c2cc(Cl)c(F)c(C(=O)NNS(=O)(=O)C[C@H]3CC[C@H](N(C)C(=O)OC(C)(C)C)CC3)c2)c1
Reply: > 5.00

Ask: State its pIC50 for this molecule: Cn1cnc(-c2cc(Cl)c(F)c(C(=O)NNS(=O)(=O)c3cnnn3C)c2)c1
Reply: 4.30 to 5.00

Ask: State its pIC50 for this molecule: Cn1cnc(-c2cc(Cl)c(F)c(C(=O)NNS(=O)(=O)C[C@H]3CC[C@@H](NC(=O)C4CCC4)CC3)c2)c1
Reply: > 5.00

Ask: State its pIC50 for this molecule: Cn1cnc(-c2cc(Cl)c(F)c(C(=O)NNS(=O)(=O)C3CCC4CCC3C4)c2)c1 (centres unmarked)
Reply: 4.30 to 5.00

Ask: State its pIC50 for this molecule: Cn1ccc(-c2cc(Cl)c(F)c(C(=O)NNS(=O)(=O)CC3CCCCC3)c2)n1
Reply: > 5.00

Next:
Ask: State its pIC50 for this molecule: CC(C)S(=O)(=O)NNC(=O)c1cc(-c2cn(C)cn2)cc(Cl)c1F
Reply: < 4.00

Ask: State its pIC50 for this molecule: CCNC(=O)N[C@H]1CCC[C@H](CS(=O)(=O)NNC(=O)c2cc(-c3cn(C)cn3)cc(Cl)c2F)C1
Reply: > 5.00

Ask: State its pIC50 for this molecule: CCNC(=O)N1CCC(CS(=O)(=O)NNC(=O)c2cc(-c3cn(C)cn3)cc(Cl)c2F)C1 (centres unmarked) [Compound I-64]
Reply: > 5.00
